target: recombinant HCV RNA-dependent RNA polymerase (NS5B protein) (Hepatitis C virus genotype 1b, UniProt P26663); test: biochemical; design: species or system HCV-Bk strain
Sequence (P26663 2420-3010 limits assumed): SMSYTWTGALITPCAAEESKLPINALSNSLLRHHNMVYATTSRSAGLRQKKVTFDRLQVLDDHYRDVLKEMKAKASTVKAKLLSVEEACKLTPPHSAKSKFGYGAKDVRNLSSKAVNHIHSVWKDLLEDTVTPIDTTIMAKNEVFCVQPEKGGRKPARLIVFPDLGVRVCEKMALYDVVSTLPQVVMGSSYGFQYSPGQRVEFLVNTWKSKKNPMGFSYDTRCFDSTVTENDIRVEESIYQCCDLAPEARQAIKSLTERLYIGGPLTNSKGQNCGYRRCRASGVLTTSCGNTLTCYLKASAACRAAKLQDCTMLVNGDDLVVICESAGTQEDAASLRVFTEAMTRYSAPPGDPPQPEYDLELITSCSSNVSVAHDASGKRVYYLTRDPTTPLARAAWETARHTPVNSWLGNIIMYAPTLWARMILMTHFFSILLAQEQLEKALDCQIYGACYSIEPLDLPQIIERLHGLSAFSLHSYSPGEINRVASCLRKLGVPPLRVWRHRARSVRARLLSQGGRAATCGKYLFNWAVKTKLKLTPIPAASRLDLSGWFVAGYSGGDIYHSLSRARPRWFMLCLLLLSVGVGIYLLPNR
Structures can show the parent of a compound that is named as a salt.
measurement_type: IC50

| compound | recorded_value |
| --- | --- |
| CC1CCC(F)(C(=O)N(c2cc(-c3ccccc3)sc2C(=O)O)C(C)C)CC1 (centres unmarked) | < 5 µM |
| CC1CCC(C(=O)N(Cc2ccccn2)c2cc(-c3ccccc3)sc2C(=O)O)CC1 (centres unmarked) | < 5 µM |
| CCC(C)C(C[NH3+])N(C(=O)c1ccccc1Cl)c1cc(-c2ccccc2)sc1C(=O)O (centres unmarked) [Compound 19, trifluoroacetate] | > 20 µM |
| CC1CCC(C(=O)N(c2cc(-c3ccccc3)sc2C(=O)O)N(C)C)CC1 (centres unmarked) | < 5 µM |
| CC(=O)NC1CC(C)CCC1C(=O)N(c1cc(-c2ccccc2)sc1C(=O)O)C(C)C (centres unmarked) | 5 to 20 µM |
| CC1CCC(C(=O)N(CC2CCCN(C)C2)c2cc(-c3ccc(F)cc3)sc2C(=O)O)CC1 (centres unmarked) | < 5 µM |
| CC1CCC(C(=O)N(c2cc(-c3ccccc3)sc2C(=O)O)C2CCC[NH+](C)CC2)CC1 (centres unmarked) | < 5 µM |
| CCN(C(=O)c1ccc(C)cc1)c1cc(-c2ccccc2)sc1C(=O)O | < 5 µM |

Data provenance: patent US8829030B2
